- assay-summary: AUC (24 hrs) in BALB/c mouse at 3 mg/kg, po by LC-MS/MS analysis
- Assay type: ADME, organism-based
- Design: dose 3 mg/kg, time < 24 hr, route oral
- condition-parameters: in vivo
observation-type: AUC at 24 h (ng·h/mL)
All answers are understood in ng·h/mL, so give the number only.

Task: Read off the recorded AUC at 24 h for COc1ncc(N2CCc3ncnc(-c4ccnc(NC5CCN(C)CC5)c4)c3C2)cc1C
Result: 2210

---

Task for the reader: assign each of the following compounds its reported IC50.
- tested-target: Phosphatidylinositol 4,5-bisphosphate 3-kinase catalytic subunit delta isoform (Homo sapiens)
- Sequence (O00329 whole entry): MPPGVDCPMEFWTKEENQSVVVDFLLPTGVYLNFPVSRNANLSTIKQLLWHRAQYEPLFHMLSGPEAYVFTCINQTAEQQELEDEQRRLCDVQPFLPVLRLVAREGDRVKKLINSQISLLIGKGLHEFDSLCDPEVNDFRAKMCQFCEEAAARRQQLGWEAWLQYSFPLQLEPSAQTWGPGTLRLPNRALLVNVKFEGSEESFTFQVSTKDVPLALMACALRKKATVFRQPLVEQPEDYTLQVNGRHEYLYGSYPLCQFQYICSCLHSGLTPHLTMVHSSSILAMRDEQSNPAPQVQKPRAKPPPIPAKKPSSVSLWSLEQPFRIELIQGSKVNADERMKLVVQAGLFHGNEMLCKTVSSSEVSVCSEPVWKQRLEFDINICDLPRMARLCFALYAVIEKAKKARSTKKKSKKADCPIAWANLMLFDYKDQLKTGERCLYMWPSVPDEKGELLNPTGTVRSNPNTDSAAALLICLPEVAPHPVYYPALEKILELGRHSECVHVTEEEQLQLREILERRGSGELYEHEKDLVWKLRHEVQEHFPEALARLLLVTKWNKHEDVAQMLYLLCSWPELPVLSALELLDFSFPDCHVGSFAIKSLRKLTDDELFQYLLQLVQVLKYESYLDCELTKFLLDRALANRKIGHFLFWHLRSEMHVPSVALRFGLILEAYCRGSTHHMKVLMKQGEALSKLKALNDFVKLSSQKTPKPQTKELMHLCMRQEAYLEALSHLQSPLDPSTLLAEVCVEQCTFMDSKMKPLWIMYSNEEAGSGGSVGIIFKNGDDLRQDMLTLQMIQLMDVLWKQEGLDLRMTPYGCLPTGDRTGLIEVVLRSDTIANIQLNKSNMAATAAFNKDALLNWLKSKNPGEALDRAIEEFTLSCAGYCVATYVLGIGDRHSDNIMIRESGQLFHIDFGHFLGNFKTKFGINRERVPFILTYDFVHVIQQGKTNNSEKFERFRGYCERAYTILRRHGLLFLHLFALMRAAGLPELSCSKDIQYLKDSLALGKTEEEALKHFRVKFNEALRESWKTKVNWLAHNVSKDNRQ
- assay-summary: Inhibition of recombinant human PI3Kdelta using PIP2 as substrate after 35 to 40 mins by HTRF assay
Record the value in nM, omitting the unit from your answer.

Task: Complete the entry with IC50 for COc1ncc(N2CCc3ncnc(-c4ccnc(NC5CCN(C)CC5)c4)c3C2)cc1C
Result: 7

Task: Specify IC50 for COc1ncc(N2CCc3ncnc(Nc4cccc(C)c4)c3C2)cc1C and stop.
Result: 220

Task: Please give measured IC50 of the following entry: COc1ncc(N2CCc3ncnc(-c4cnn(CC5CCOCC5)c4)c3C2)cc1C
Result: 110

Task: For the compound COc1ncc(N2CCc3ncnc(-c4cnn(C5CCOCC5)c4)c3C2)cc1C , report IC50.
Result: 180

Task: Please look at this compound and report its IC50: COc1ncc(N2CCc3ncnc(-c4ccnc(NC5CCNCC5)c4)c3C2)cc1C
Result: 25

Task: Read the entry COCCNc1cc(-c2ncnc3c2CN(c2cnc(OC)c(C)c2)CC3)ccn1 and write its reported IC50.
Result: 39

Task: Return the recorded IC50 value; entry: CCN1CCC(Nc2cc(-c3ncnc4c3CN(c3cnc(OC)c(C)c3)CC4)ccn2)CC1
Result: 8.5

Task: Specify IC50 for COc1ncc(N2CCc3ncnc(-c4ccnc(NC5CCN(S(C)(=O)=O)CC5)c4)c3C2)cc1C and stop.
Result: 9.6

Task: Return IC50 (reported value) for this compound: COCC(=O)N1CCC(Nc2cc(-c3ncnc4c3CN(c3cnc(OC)c(C)c3)CC4)ccn2)CC1
Result: 9.2

Task: Please report the measured IC50 for COc1ncc(N2CCc3ncnc(-c4ccc(NC5CCOCC5)nc4)c3C2)cc1C
Result: 150

Task: Identify IC50 associated with the compound COc1ncc(N2CCc3ncnc(Nc4cccc(C(=O)NC5CCOCC5)c4)c3C2)cc1C
Result: 49

Task: Quickly give me recorded IC50 for COc1ncc(N2CCc3ncnc(-c4ccnc(N[C@H]5CC[C@H](O)CC5)c4)c3C2)cc1C
Result: 27

Task: Please report IC50 for the following compound: COc1ncc(N2CCc3ncnc(-c4ccnc(NC5CCOCC5)c4)c3C2)cc1C
Result: 11

Task: Fill in IC50 for record COc1ncc(N2CCc3ncnc(-c4ccc(NCC5CCOCC5)nc4)c3C2)cc1C
Result: 42

Task: Dear colleague, please send me the reported IC50 for COc1ncc(N2CCc3ncnc(-c4ccnc(OC5CCN(C)CC5)c4)c3C2)cc1C when you can.
Result: 45

Task: Look up IC50 of COc1ncc(N2CCc3ncnc(Nc4cccc(C(=O)N5CCOCC5)c4)c3C2)cc1C and report it.
Result: 47

Task: Please look at this compound and report its IC50: COc1ncc(N2CCc3ncnc(-c4ccnc(NCC5CCOCC5)c4)c3C2)cc1C
Result: 28

Task: Provide IC50 value for the following compound: CCOC(=O)c1cccc(Nc2ncnc3c2CN(c2cnc(OC)c(C)c2)CC3)c1
Result: 120

Task: Input COc1ncc(N2CCc3ncnc(-c4ccnc(NCc5ccccc5)c4)c3C2)cc1C , output reported IC50.
Result: 87

---

- tested-target: Phosphatidylinositol 4,5-bisphosphate 3-kinase catalytic subunit alpha isoform (Homo sapiens, UniProt P42336)
- Sequence (P42336 whole entry, canonical isoform): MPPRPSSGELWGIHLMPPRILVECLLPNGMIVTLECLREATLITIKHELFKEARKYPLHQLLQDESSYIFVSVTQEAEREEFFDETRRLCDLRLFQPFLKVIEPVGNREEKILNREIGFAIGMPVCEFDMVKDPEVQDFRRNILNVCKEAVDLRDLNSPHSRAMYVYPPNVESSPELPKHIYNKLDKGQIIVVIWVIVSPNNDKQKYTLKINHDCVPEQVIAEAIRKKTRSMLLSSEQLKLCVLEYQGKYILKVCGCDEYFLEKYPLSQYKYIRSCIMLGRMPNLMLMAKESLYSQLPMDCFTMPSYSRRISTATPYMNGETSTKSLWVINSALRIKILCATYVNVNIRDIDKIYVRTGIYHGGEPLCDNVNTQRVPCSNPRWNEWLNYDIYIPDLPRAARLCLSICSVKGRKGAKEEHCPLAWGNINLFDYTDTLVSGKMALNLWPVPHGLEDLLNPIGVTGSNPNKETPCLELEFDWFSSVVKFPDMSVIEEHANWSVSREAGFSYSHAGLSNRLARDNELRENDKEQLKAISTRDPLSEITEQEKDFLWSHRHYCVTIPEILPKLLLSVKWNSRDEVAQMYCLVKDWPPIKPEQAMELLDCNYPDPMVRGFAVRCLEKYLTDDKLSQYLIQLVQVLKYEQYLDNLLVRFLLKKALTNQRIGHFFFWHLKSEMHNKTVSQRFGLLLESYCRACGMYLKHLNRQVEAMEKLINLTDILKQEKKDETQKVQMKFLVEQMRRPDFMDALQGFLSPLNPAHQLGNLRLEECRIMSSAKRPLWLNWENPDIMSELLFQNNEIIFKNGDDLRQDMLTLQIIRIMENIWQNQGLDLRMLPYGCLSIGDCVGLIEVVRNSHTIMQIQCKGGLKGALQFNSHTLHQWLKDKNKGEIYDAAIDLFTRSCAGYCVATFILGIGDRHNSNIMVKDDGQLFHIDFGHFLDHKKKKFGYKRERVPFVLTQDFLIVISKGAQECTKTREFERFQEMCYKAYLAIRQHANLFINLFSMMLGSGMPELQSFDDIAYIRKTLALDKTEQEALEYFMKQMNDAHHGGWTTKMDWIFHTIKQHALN
- assay-summary: Inhibition of human PI3Kalpha using phosphatidyl inositol as substrate after 3 hrs by Kinase-Glo Plus reagent-based luminescence assay
So I've got a bunch of compounds here, and I need their IC50 values.
Please state the figure in µM; there is no need to write the unit.

Task: # return recorded IC50 for input COc1ncc(N2CCc3ncnc(-c4ccnc(N[C@H]5CC[C@H](O)CC5)c4)c3C2)cc1C
Result: 7.3

Task: Output IC50 of COc1ncc(N2CCc3ncnc(-c4ccnc(NCC5CCOCC5)c4)c3C2)cc1C
Result: 7.5

Task: # return recorded IC50 for input COc1ncc(N2CCc3ncnc(-c4cnn(C5CCOCC5)c4)c3C2)cc1C
Result: 2.6

Task: // fetch IC50 given entry COc1ncc(N2CCc3ncnc(-c4cnn(CC5CCOCC5)c4)c3C2)cc1C
Result: 4.9

Task: Return the recorded IC50 value; entry: COCC(=O)N1CCC(Nc2cc(-c3ncnc4c3CN(c3cnc(OC)c(C)c3)CC4)ccn2)CC1
Result: 9.8

---

- assay-summary: Aqueous solubility of compound at pH 6.8 Japanese Pharmacopoeia 2nd fluid for disintegration test at 130 uM after 20 hrs by liquid chromatography method
- Type: physicochemical
observation-type: solubility at 20 h, 130 µM

Task: Answer with the recorded solubility at 20 h, 130 µM of COc1ncc(N2CCc3ncnc(-c4ccnc(NC5CCN(C)CC5)c4)c3C2)cc1C only.
Result: > 100 µM

---

- tested-target: Phosphatidylinositol 4,5-bisphosphate 3-kinase catalytic subunit beta isoform (Homo sapiens, UniProt P42338)
- Sequence (P42338 whole entry, canonical isoform): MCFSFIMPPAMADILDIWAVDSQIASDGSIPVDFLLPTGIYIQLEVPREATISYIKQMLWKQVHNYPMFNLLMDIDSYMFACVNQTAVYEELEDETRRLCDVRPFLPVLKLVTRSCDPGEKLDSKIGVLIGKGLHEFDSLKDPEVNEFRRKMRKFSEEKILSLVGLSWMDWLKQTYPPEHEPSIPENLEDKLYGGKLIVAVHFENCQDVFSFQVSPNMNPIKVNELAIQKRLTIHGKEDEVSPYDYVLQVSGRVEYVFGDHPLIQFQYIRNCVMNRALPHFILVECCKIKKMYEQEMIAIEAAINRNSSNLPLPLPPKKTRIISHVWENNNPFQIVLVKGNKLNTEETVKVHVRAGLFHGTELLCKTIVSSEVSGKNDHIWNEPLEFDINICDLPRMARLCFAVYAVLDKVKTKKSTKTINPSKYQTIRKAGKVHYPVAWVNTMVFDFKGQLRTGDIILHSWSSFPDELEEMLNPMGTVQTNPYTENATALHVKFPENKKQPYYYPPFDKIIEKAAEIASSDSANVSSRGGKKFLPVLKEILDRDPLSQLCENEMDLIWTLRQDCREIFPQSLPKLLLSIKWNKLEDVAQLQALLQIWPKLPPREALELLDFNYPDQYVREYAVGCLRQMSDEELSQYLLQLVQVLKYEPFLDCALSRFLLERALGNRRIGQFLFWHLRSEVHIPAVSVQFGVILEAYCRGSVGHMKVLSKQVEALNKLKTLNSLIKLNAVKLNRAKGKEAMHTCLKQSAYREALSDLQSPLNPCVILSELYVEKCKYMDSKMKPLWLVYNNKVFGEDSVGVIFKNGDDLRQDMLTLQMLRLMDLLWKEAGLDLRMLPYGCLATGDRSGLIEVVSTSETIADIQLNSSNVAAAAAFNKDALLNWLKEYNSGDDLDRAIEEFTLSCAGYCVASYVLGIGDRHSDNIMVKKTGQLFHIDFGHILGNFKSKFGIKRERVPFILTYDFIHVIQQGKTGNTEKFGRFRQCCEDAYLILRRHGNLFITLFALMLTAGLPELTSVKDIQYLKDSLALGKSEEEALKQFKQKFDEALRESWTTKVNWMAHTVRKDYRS
- assay-summary: Inhibition of recombinant human PI3Kbeta using PIP2 as substrate after 35 to 40 mins by HTRF assay
observation-type: IC50

Task: Respond only with IC50 recorded for COc1ncc(N2CCc3ncnc(-c4ccnc(NCC5CCOCC5)c4)c3C2)cc1C
Result: 8.9 µM

Task: Input COc1ncc(N2CCc3ncnc(-c4ccnc(NC5CCNCC5)c4)c3C2)cc1C , output reported IC50.
Result: > 10 µM

Task: For the compound COc1ncc(N2CCc3ncnc(-c4ccnc(NC5CCOCC5)c4)c3C2)cc1C , give its reported IC50.
Result: 5.4 µM

Task: Give the value of IC50 reported for the following: COCC(=O)N1CCC(Nc2cc(-c3ncnc4c3CN(c3cnc(OC)c(C)c3)CC4)ccn2)CC1
Result: > 10 µM

Task: In one line, give reported IC50 of the entry COc1ncc(N2CCc3ncnc(-c4ccnc(NC5CCN(C)CC5)c4)c3C2)cc1C .
Result: > 10 µM

Task: Annotate the compound CCN1CCC(Nc2cc(-c3ncnc4c3CN(c3cnc(OC)c(C)c3)CC4)ccn2)CC1 with its measured IC50.
Result: > 10 µM

---

Consider the following molecules; for each one, report its pIC50.
- tested-target: Phosphatidylinositol 4,5-bisphosphate 3-kinase catalytic subunit alpha isoform (Homo sapiens)
- assay-summary: Inhibition of human PI3Kalpha using phosphatidyl inositol as substrate after 3 hrs by Kinase-Glo Plus reagent-based luminescence assay
Entry type: numeric. Quantity: pIC50, the -log10 of concentration in molar units.

Task: For the molecule COc1ncc(N2CCc3ncnc(-c4ccnc(NC5CCOCC5)c4)c3C2)cc1C , give its reported pIC50.
Result: 5.24

Task: Annotate the molecule CCN1CCC(Nc2cc(-c3ncnc4c3CN(c3cnc(OC)c(C)c3)CC4)ccn2)CC1 with its measured pIC50.
Result: 5.34

Task: Determine its reported pIC50: COc1ncc(N2CCc3ncnc(-c4ccc(NCC5CCOCC5)nc4)c3C2)cc1C
Result: 5.21

Task: Output measured pIC50 for this item: COc1ncc(N2CCc3ncnc(-c4ccnc(NC5CCN(S(C)(=O)=O)CC5)c4)c3C2)cc1C
Result: 5.85
